Source: patent US20230295118A1

Assign Dmax to each entry below.
target: CDK4 (Homo sapiens, UniProt P11802); construct: endogenous in cells; assay: CDK4 degradation (DC50, Dmax); type: cell-based
Sequence (P11802 whole entry): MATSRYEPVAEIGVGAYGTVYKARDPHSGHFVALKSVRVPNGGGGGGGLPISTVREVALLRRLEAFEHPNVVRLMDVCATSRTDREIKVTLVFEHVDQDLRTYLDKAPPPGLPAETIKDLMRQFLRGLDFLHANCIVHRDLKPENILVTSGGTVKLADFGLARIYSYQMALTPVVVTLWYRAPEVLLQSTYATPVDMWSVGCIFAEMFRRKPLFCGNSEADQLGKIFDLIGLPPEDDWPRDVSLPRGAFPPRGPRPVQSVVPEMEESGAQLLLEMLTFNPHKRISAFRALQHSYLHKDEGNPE

These recorded examples may help you get a feel for the data.
CC(=O)c1c(C)c2cnc(Nc3ccc(N4CCN(C5CCN(C(=O)N6CCN(c7ccc8c(c7)C(=O)N(C7CCC(=O)NC7=O)C8=O)CC6)CC5)CC4)cn3)nc2n(C2CCCC2)c1=O (centres unmarked) [Compound 35]	> 60%
CC(=O)c1c(C)c2cnc(Nc3ccc(N4CCN(CC5CCN(c6ccc7c(c6)CN(C6CCC(=O)NC6=O)C7=O)CC5)CC4)cn3)nc2n(C2CCCC2)c1=O (centres unmarked) [Compound 66]	> 80%
CC(=O)c1c(C)c2cnc(Nc3ccc(N4CCN(CCCN(C)c5ccc6c(c5)CN(C5CCC(=O)NC5=O)C6=O)CC4)cn3)nc2n(C2CCCC2)c1=O (centres unmarked) [Compound 58]	> 60%
CC(=O)c1c(C)c2cnc(Nc3ccc(N4CCN(CC5CN(c6ccc7c(c6)CN(C6CCC(=O)NC6=O)C7=O)C5)CC4)cn3)nc2n(C2CCCC2)c1=O (centres unmarked) [Compound 118]	> 80%
Cc1nc2c(F)cc(-c3nc(Nc4ccc(CN5CCN(CC6CCCN(c7ccc(N8CCC(=O)NC8=O)cc7)C6)CC5)cn4)ncc3F)cc2n1C(C)C (centres unmarked) [Compound 110]	> 80%

Each of the following entries comes with a recorded value; kindly state Dmax for each.
1. CC(=O)c1c(C)c2cnc(Nc3ccc(N4CCN(C(=O)C5CCN(c6ccc(C(=O)NC7CCC(=O)NC7=O)cc6)CC5)CC4)cn3)nc2n(C2CCCC2)c1=O (centres unmarked) [Compound 116]
2. CC(=O)c1c(C)c2cnc(Nc3ccc(N4CCN(C5CCN(c6ccc7c(c6)CN(C6CCC(=O)NC6=O)C7=O)CC5)CC4)cn3)nc2n(C2CCCC2)c1=O (centres unmarked) [Compound 64]
3. CC(=O)c1c(C)c2cnc(Nc3ccc(N4CCN(CCN5CCN(c6ccc7c(c6)C(=O)N(C6CCC(=O)NC6=O)C7=O)CC5)CC4)cn3)nc2n(C2CCCC2)c1=O (centres unmarked) [Compound 67]
4. CC(=O)c1c(C)c2cnc(Nc3ccc(N4CCN(CCNc5ccc6c(c5)C(=O)N(C5CCC(=O)NC5=O)C6=O)CC4)cn3)nc2n(C2CCCC2)c1=O (centres unmarked) [Compound 47]
5. CC(=O)c1c(C)c2cnc(Nc3ccc(N4CCN(C(=O)N5CCC(N6CCN(c7ccc8c(c7)CN(C7CCC(=O)NC7=O)C8=O)CC6)CC5)CC4)cn3)nc2n(C2CCCC2)c1=O (centres unmarked) [Compound 4]
6. CC(=O)c1c(C)c2cnc(Nc3ccc(N4CCN(CCC5CCN(C(=O)Nc6ccc7c(c6)C(=O)N(C6CCC(=O)NC6=O)C7=O)CC5)CC4)cn3)nc2n(C2CCCC2)c1=O (centres unmarked) [Compound 45]

Resp:
["> 80%", "> 80%", "> 80%", "> 80%", "> 50%", "> 60%"]
